molecular target: Phosphatidylserine lipase ABHD16A (Homo sapiens, UniProt O95870)
Sequence (O95870 whole entry): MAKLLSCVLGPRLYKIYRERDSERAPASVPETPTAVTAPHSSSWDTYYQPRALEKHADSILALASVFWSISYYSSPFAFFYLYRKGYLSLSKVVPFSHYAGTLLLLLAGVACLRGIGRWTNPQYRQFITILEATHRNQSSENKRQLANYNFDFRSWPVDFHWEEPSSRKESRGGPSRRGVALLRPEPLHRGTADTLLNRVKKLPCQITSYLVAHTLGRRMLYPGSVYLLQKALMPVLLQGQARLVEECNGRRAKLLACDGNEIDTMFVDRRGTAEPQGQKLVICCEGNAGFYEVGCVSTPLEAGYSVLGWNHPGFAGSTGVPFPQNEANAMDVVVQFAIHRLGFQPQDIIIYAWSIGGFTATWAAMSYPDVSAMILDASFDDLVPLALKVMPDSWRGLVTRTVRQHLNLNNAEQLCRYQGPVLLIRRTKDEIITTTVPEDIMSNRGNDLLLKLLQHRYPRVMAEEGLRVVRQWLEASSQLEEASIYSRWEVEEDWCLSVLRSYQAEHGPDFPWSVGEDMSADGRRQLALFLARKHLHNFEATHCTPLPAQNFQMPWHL
readout label: pIC50
// pIC50 is dimensionless: -log10 of concentration (M)

Entry COc1nn(-c2ccc(F)cc2)c(=O)o1 has what pIC50? 7.49

Recorded values, source BindingDB's records for doi:10.1021/acsmedchemlett.8b00442.
